Measured values drawn from paper PMC8621172 for this set.

For each entry below, report its Relative alkaline phosphatase activity value.
System: Ishikawa endometrial adenocarcinoma cell line
Protocol: Alkaline phosphatase (AlkP) activity in Ishikawa cells
Format: cell-based, human
Applied conditions: 1 µM, 72 h, DMSO set to 1
Respond numerically, and do not add a unit to the figure.

Inquiry: Give Relative alkaline phosphatase activity for `COc1ccc(C(C)=C(c2ccc(Cl)cc2)c2ccc(OCCN3CCOCC3)cc2)cc1F`
Reply text: 1.01

Inquiry: Give Relative alkaline phosphatase activity for `COc1ccc(C(C)=C(c2ccc(Cl)cc2)c2ccc(OCCCN(C)C)cc2)cc1`
Reply text: 2.55

Inquiry: Give Relative alkaline phosphatase activity for `COc1ccc(C(C)=C(c2ccc(Cl)cc2)c2ccc(OCCN3CCCC3)cc2)cc1F`
Reply text: 0.98

Inquiry: Give Relative alkaline phosphatase activity for `CC(=C(c1ccc(Cl)cc1)c1ccc(OCCN2CCOCC2)cc1)c1ccccc1`
Reply text: 1.16

Inquiry: Give Relative alkaline phosphatase activity for `COc1cc(C(C)=C(c2ccc(O)cc2)c2ccc(Cl)cc2)ccc1F`
Reply text: 1.10

Inquiry: Give Relative alkaline phosphatase activity for `CC(=C(c1ccc(Cl)cc1)c1ccc(OCCCN(C)C)cc1)c1ccccc1`
Reply text: 1.08

Inquiry: Give Relative alkaline phosphatase activity for `CCN(CC)CCOc1ccc(C(=C(C)c2ccc(OC)c(F)c2)c2ccc(Cl)cc2)cc1`
Reply text: 0.90

Inquiry: Give Relative alkaline phosphatase activity for `COc1ccc(C(C)=C(c2ccc(Cl)cc2)c2ccc(OCCCN(C)C)cc2)cc1F`
Reply text: 0.86

----------
Tested on: Ishikawa endometrial adenocarcinoma cell line
Protocol: Alkaline phosphatase (AlkP) activity in Ishikawa cells
Assay type: cell-based, human
Applied conditions: 10 µM, 72 h, DMSO set to 1
For each entry below, report its Relative alkaline phosphatase activity value.
Respond numerically, and do not add a unit to the figure.

Inquiry: Give Relative alkaline phosphatase activity for CC(=C(c1ccc(Cl)cc1)c1ccc(OCCCN(C)C)cc1)c1ccccc1 [Compound 5]
Reply text: 0.21

Inquiry: Give Relative alkaline phosphatase activity for COc1ccc(C(C)=C(c2ccc(Cl)cc2)c2ccc(OCCN3CCCCC3)cc2)cc1 [Compound 12]
Reply text: 0.42

Inquiry: Give Relative alkaline phosphatase activity for COc1ccc(C(C)=C(c2ccc(Cl)cc2)c2ccc(OCCN3CCCC3)cc2)cc1 [Compound 11]
Reply text: 1.36

Inquiry: Give Relative alkaline phosphatase activity for COc1ccc(C(C)=C(c2ccc(Cl)cc2)c2ccc(OCCN3CCCCCC3)cc2)cc1F [Compound 19]
Reply text: 0.04

----------
Tested on: 60 NCI tumor cell lines
Protocol: NCI-60 single-dose growth inhibition screen (SRB)
Format: cell-based, human
Applied conditions: Homo sapiens, mean over 60 NCI tumor cell lines
Value type: inhibition at 10 µM (%)
Kindly answer with a numeric value in %, unit omitted.

Inquiry: Give inhibition at 10 µM for `COc1ccc(C(C)=C(c2ccc(Cl)cc2)c2ccc(OCCN3CCCC3)cc2)cc1`
Reply text: 67.8

Inquiry: Give inhibition at 10 µM for `COc1ccc(C(C)=C(c2ccc(Cl)cc2)c2ccc(OCCN3CCCCC3)cc2)cc1F`
Reply text: 69.1

Inquiry: Give inhibition at 10 µM for `COc1cc(C(C)=C(c2ccc(O)cc2)c2ccc(Cl)cc2)ccc1F`
Reply text: 15.4

Inquiry: Give inhibition at 10 µM for `COc1ccc(C(C)=C(c2ccc(Cl)cc2)c2ccc(OCCN3CCCC3)cc2)cc1F`
Reply text: 77.2
